A compilation of published Ki results with Adenosine receptor A2a (Homo sapiens, UniProt P29274).
Quick reminder: number only, in nM, skip the unit.

1. Cc1cc(-c2sc(NC(=O)N3CCN(S(N)(=O)=O)CC3)nc2-c2cccc(C#N)c2)cc(C)n1 ... 0.6
2. Cc1cc(-c2c(-c3cccc(C#N)c3)nn3ccc(NCc4ncc[nH]4)nc23)cc(Cl)n1 ... 17.1
3. Cc1cc(-c2sc(NC(=O)N3CCNC(C)(C)C3)nc2-c2cccc(C#N)c2)cc(C)n1 ... 15.6
4. Cc1cc(-c2c(-c3cccc(C#N)c3)nn3ccc(C(=N)N)nc23)cc(C)n1 ... 1.5

Exam item: Recorded Ki for N#Cc1cccc(-c2nc(NC(=O)N3CC4(COC4)C3)sc2-c2cc(Cl)nc(Cl)c2)c1 , please?
Marked response: 0.57

Exam item: Also Nc1ccn2nc(-c3ccco3)c(-c3ccncc3)c2n1 , if possible.
Marked response: 146

Exam item: Also Fc1cccc(-c2cc3nc(NCc4nc5ccccc5[nH]4)ccn3n2)c1 , if possible.
Marked response: 492

Exam item: Also Cc1cc(-c2c(-c3cccc(C#N)c3)nn3ccc(C(=O)N[C@H](C)[C@H](O)CO)nc23)cc(Cl)n1 , if possible.
Marked response: 0.6

Exam item: Also Cc1cc(-c2sc(NC(=O)N3C[C@@H]4NCCO[C@H]4C3)nc2-c2cccc(C#N)c2)cc(C(F)F)n1 (racemic) , if possible.
Marked response: 2.67

Exam item: Also Cc1cc(-c2c(-c3cccc(C#N)c3)nn3ccc(C(=N)NC(C)(C)C)nc23)cc(Cl)n1 , if possible.
Marked response: 12.3

Exam item: Also Nc1nc(-c2ccncc2)c(-c2ccncc2F)cc1Cl , if possible.
Marked response: 555

Exam item: Also CCC(=O)N[C@H]1C[C@@H](n2cnc3c(NC(CO)Cc4ccccc4)nc(N4CC[C@@H](NC(=O)N[C@H]5CCN(c6nc(NC(CO)Cc7ccccc7)c7ncn([C@@H]8C[C@H](NC(=O)CC)[C@@H](O)[C@H]8O)c7n6)C5)C4)nc32)[C@H](O)[C@@H]1O (stereo in doubt) , if possible.
Marked response: 10

Exam item: Also Cc1cc(-c2c(-c3cccc(C#N)c3)nn3ccc(C(=O)NC[C@H](O)CO)nc23)cc(Cl)n1 , if possible.
Marked response: 1.7

Exam item: Also Cc1cc(-c2sc(NC(=O)N3CCN[C@@H](C(N)=O)C3)nc2-c2cccc(C#N)c2)cc(Cl)n1 , if possible.
Marked response: 2.9

Exam item: Also NCCC(=O)N(CCc1c[nH]c2ccccc12)C(C(=O)Nc1ccccc1)c1ccc(Br)cc1 (stereo not shown) , if possible.
Marked response: 136

Exam item: Also COCCOc1ccc(N2CCN(C(=O)C(C)n3cc4c(nc(N)n5nc(-c6ccco6)nc45)n3)CC2)cc1 (single isomer, unassigned) , if possible.
Marked response: 2.5

Exam item: Also Cc1cc(-c2sc(NC(=O)N3CCN4C(=O)NCCC4C3)nc2-c2cccc(C#N)c2)cc(C)n1 (stereo not shown) , if possible.
Marked response: 0.39
